Listed below: Cmax values for each entry.
- experimental_details: Pharmacokinetic measurement in C57BL/6 mice, single subcutaneous dose, plasma ELISA
- Assay type: in vivo
- measurement_context: single subcutaneous dose 30 nmol/kg, plasma
# do not omit the unit; it follows the number

| molecule | Cmax |
| --- | --- |
| Compound 9: GLP-1/FGF21 fusion polypeptide SEQ ID NO: 9 conjugated with Moiety A at 231K (conjugate, Moiety A conjugated at K231) HGEGTFTSDVSSYLEEQAAREFIAWLVRGGGGGGGSGGGGSGGGGSGGGGSHPIPDSSPLLQFGGQVRQRYLYTDDAQQTEAHLEIREDGTVGGAADQSPESLLQLRALRPGVIQILGVRTSRFLCQRPDGALYGSLHFDPEACSFRELLLEDGYNVYQSEAHGLPLHLPGQRSPHRDPAPRGPARFLPLPGLPPALPEPPGILAPQPPDVGSSDPLSLVGGSQGRSPSYKS | 65.6 nM |

In the following, a different molecule is considered.
Form field: reported Cmax of Compound 10: GLP-1/FGF21 fusion polypeptide SEQ ID NO: 10 conjugated with Moiety A at 222K (conjugate, Moiety A conjugated at K222) HGEGTFTSDVSSYLEEQAAREFIAWLVRGGGGGGGSGGGGSGGGGSGGGGSHPIPDSSPLLQFGGQVRQRYLYTDDAQQTEAHLEIREDGTVGGAADQSPESLLQLRALRPGVIQILGVRTSRFLCQRPDGALYGSLHFDPEACSFRELLLEDGYNVYQSEAHGLPLHLPGQRSPHRDPAPRGPARFLPLPGLPPALPEPPGILAPQPPDVGSSDPLSLVGKSQGRSPSYES
50.2 nM
